Species: Rattus norvegicus
protocol: DrugMatrix - Regimen: Daily Repeat
Format: toxicity, organism-based, Sprague-Dawley
Parameters: regimen Daily Repeat, gender Male, age 6-8 weeks
condition details: in vivo, ip, 160 mg/kg, […], tissue Blood, route intraperitoneal, dose level High, time 14 day, vehicle 100 % SALINE

smiles structure: NCC[C@H](O)C(=O)N[C@@H]1C[C@H](N)[C@@H](O[C@H]2O[C@H](CN)[C@@H](O)[C@H](O)[C@H]2O)[C@H](O)[C@H]1O[C@H]1O[C@H](CO)[C@@H](O)[C@H](N)[C@H]1O
ABSOLUTE LYMPHOCYTE / cells/µL: 10400

meta.source: ChEMBL document CHEMBL3885881
